- target: CUL5 (Homo sapiens, UniProt Q93034+Q9UBF6, Q93034:L407E/Q93034:L439K/Q93034:V440K)
- Sequence (Q93034 401-780 L407E/L439K/V440K): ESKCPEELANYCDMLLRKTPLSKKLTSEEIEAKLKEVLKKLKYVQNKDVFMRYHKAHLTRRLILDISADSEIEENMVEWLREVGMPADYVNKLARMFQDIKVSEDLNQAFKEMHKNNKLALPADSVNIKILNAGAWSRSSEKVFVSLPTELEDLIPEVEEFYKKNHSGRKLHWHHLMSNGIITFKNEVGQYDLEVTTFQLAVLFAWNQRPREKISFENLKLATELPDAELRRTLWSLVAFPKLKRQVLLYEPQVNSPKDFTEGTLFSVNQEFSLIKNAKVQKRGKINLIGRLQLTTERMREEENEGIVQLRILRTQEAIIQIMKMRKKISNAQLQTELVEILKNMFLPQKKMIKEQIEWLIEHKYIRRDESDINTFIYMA
- Sequence (Q9UBF6 2-113): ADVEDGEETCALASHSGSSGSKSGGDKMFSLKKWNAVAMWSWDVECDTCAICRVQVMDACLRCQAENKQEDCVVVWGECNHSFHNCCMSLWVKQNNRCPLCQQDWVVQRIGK
- assay.remarks: in vitro CUL5 neddylation assay
outcome.measure: IC50 (µM)

> print(dat)
                              sample.smiles                                    target  outcome.measure  units  test.result
1  Cc1cc2c(C(C)C)c(O)c(O)c(C=O)c2c(O)c1-c1c(C)cc2c(C(C)C)c(O)c(O)c(C=O)c2c1O  CUL5 (Homo sapiens, UniProt Q93034+Q9UBF6, Q93034:L407E/Q93034:L439K/Q93034:V440K)             IC50     µM         4.25
